assay: Inhibition of human TRKA expressed in human TF1 cells by CellTiter-Glo Luminescent assay
What pIC50 was measured for each of the following?
Answers are plain numbers, as −log10 of the molar value.

The cases that follow already have their pIC50 on record.
>  <molecule>
COCCN1C[C@@H](NC(=O)Nc2c(C)c(-c3cnn(C)c3)nn2-c2ccccc2)[C@@H]2c3ccccc3CC[C@H]21

>  <pIC50>
9.23

$$$$
>  <molecule>
COCC[C@@H]1C[C@@H](NC(=O)Nc2c(C)c(-c3cnn(C)c3)nn2-c2ccccc2)[C@@H]2c3ccccc3C(F)(F)CN12

>  <pIC50>
9.19

$$$$

Next item in the queue.
Query: Give pIC50 for `Cc1c(OCC2CCN(C)CC2)nn(-c2ccccc2)c1NC(=O)N[C@H]1CN(CC(F)(F)F)[C@@H]2COc3ccccc3[C@H]12`
Result: 9.19
